Target: T1, full-length (FL) His-MBP-Ars2 (S. pombe, UniProt O94326 1-609)
T1 construct: Ars2, S. pombe, 609 residues; the tags are named on the protein for the gel filtration; also called FL Ars2; full-length Ars2; source: E. coli, expressed as MBP fusion, purified (amylose resin, Superdex 200)
T1 sequence (looked up): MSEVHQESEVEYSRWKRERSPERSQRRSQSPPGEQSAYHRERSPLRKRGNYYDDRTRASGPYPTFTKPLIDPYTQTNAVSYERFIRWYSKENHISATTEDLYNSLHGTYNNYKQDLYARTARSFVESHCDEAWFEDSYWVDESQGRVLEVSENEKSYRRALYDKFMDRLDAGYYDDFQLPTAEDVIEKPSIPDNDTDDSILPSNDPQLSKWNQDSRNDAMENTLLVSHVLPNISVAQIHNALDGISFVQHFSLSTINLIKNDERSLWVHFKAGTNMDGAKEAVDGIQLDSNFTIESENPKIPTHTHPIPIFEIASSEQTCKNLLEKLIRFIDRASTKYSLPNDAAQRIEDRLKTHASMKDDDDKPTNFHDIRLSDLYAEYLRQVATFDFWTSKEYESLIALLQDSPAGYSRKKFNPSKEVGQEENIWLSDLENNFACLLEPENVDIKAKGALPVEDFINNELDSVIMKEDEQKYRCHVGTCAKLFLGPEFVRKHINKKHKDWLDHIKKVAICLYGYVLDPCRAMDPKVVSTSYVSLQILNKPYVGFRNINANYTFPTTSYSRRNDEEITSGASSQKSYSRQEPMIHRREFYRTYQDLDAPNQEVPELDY
Test: ITC; 25 °C, 0.4-0.8 mM Red1 injected into 30-40 µM Ars2, 20 mM Tris pH 8.0, 200 mM NaCl, one-site model
Settings: both partners purified
Reported Kd values follow for various binders

KNEEDESNDSDKEDGEISEDD (domain or fragment, S. pombe, Red1, S. pombe, residues 20-40 with the EDGEI motif; vector pETM41; also called MBP-Red1 EDGEI motif-containing peptide; source: E. coli BL21Star (DE3), purified (Ni^2+ chelating Sepharose or amylose resin, Superdex 200)) [His-MBP-Red1 20-40] :: ~5 µM

Then there is this binder:
Query: Could you share which Kd value was measured for KNEEDESNDSDKEDGEISEDD (Red1, S. pombe, residues 20-40 with the EDGEI motif; also called Red1^20–40 peptide; Red1 N-terminal peptide; source: synthetic peptide (PSL GMBH)) [Red1 peptide 20-40] ?
Reply: ~5 µM
